Ref: patent US9725445B2

biological target: JAK2 (Homo sapiens (Human), UniProt O60674); experiment: Jak biochemical HTRF assay, JAK2; settings: HTRF biochemical assay, recombinant GST-tagged catalytic domain; read-out: JAK2 IC50
Sequence (O60674 849-1124): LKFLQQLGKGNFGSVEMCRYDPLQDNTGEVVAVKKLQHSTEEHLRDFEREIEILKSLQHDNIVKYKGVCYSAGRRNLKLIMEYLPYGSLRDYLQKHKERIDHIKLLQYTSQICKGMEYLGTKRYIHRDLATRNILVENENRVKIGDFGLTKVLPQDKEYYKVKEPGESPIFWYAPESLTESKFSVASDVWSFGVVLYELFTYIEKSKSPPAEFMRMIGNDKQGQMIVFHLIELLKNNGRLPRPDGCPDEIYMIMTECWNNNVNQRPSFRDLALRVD
pIC50: −log10 of the molar value.
measured.metric: pIC50

| mol | measured.metric | number |
| --- | --- | --- |
| N#C[C@H]1CCCC[C@@H]1n1nc(Nc2ccc(CNC(=O)c3ncccn3)cc2)c2c(=O)[nH]ccc21 | pIC50 | 8.70 |

A. N#C[C@H]1CCCC[C@@H]1n1nc(Nc2ccc3c(c2)CN(C2CCCC2)C3=O)c2c(=O)[nH]ccc21
B. N#C[C@H]1CCCC[C@@H]1n1nc(Nc2ccc(-c3ncco3)cc2)c2c(=O)[nH]ccc21
C. N#C[C@H]1CCCC[C@@H]1n1nc(Nc2ccc(-c3ncon3)cc2)c2c(=O)[nH]ccc21
Order by pIC50, ascending. List the labels in the requested order.
C, B, A
